# TEST_TARGET: Ataxin-2 (Homo sapiens) (UniProt Q99700)
# Sequence (Q99700 whole entry): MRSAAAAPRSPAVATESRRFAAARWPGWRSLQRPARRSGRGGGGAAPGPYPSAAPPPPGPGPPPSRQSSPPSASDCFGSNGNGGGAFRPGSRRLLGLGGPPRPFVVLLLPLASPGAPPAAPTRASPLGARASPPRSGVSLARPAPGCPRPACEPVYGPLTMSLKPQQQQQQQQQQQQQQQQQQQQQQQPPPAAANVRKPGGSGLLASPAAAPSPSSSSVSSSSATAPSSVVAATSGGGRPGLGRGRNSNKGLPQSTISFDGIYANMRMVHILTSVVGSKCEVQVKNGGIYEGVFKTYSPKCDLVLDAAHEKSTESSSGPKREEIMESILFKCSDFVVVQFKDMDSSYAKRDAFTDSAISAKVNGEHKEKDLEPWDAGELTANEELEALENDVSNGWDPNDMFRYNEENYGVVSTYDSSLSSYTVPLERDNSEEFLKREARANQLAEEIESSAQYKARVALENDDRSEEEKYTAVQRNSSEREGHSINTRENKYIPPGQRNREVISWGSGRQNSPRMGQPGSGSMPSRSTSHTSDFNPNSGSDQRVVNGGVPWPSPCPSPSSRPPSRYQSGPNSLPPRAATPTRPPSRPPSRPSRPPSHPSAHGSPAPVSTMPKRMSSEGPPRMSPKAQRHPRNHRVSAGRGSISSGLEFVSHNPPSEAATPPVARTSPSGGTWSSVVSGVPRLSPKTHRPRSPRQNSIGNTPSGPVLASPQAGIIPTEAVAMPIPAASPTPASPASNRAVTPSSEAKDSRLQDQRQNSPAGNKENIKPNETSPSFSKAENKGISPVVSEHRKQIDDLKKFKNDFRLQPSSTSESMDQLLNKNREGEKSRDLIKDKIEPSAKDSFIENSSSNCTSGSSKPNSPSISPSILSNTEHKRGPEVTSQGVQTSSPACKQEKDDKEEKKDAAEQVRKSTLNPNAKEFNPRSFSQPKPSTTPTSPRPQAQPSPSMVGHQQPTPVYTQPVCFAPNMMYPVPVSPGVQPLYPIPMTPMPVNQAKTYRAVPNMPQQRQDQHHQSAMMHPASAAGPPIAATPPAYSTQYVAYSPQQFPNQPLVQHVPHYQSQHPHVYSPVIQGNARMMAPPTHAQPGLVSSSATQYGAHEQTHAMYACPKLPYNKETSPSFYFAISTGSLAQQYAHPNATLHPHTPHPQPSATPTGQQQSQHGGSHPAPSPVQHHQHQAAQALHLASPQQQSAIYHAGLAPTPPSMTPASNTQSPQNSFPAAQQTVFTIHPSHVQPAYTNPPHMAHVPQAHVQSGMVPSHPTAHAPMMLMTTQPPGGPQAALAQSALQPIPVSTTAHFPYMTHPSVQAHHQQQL
# PROTOCOL_TEXT: qHTS for Inhibitors of ATXN expression.
# Assay type: functional
Out of some 400,000 compounds screened, about 2,100 (0.53%) were called active. Not shown: some 14% with an inconclusive outcome. No rule for the calls is given here. The list comes from a sample in which actives are over-represented; it also holds close analogues and randomly drawn compounds.
Select the correct class. Options are TRUE for active, FALSE for inactive and nothing else.

Reference set (5 entries):
Task: Recorded call for Cc1ccc(/N=C/c2nc(/C=C/c3cccc([N+](=O)[O-])c3)oc2O)cc1 ?
Result: TRUE

Task: Recorded call for O=C1c2ccc(Cl)cc2S(=O)(=O)c2cccc(C(=O)N3CCC(Cc4ccccc4)CC3)c21 ?
Result: TRUE

Task: Recorded call for CN(c1ccccc1)S(=O)(=O)c1ccc(Cl)c(C(=O)Nc2nn[nH]n2)c1 ?
Result: FALSE

Task: Recorded call for CCC1(C)Cc2ccccc2-c2ncnc(O)c21 (stereo unspecified) ?
Result: FALSE

Task: Recorded call for CN1C/C(=C/c2ccccc2[N+](=O)[O-])C(=O)/C(=C\c2ccccc2[N+](=O)[O-])C1 ?
Result: TRUE

Next:
Task: Recorded call for O=C(Nc1ccc(N2CCOCC2)cc1)c1cccc(S(=O)(=O)N2CCCCCC2)c1 ?
Result: FALSE

Task: Recorded call for CS(=O)(=O)c1ncc(Cl)c(C(=O)Nc2ccc(N3CCOCC3)cc2)n1 ?
Result: TRUE
